target: hNaV1.7 (Homo sapiens (Human), UniProt Q15858); assay: Competitive binding of tritiated compound to membranes from cells expressing hNav1.7 and the β1 subunit; conditions: 100 pM [3H]compound, 18 h, room temperature; read-out: NaV1.7 395 Membrane Binding IC50
Sequence (Q15858 whole entry, looked up): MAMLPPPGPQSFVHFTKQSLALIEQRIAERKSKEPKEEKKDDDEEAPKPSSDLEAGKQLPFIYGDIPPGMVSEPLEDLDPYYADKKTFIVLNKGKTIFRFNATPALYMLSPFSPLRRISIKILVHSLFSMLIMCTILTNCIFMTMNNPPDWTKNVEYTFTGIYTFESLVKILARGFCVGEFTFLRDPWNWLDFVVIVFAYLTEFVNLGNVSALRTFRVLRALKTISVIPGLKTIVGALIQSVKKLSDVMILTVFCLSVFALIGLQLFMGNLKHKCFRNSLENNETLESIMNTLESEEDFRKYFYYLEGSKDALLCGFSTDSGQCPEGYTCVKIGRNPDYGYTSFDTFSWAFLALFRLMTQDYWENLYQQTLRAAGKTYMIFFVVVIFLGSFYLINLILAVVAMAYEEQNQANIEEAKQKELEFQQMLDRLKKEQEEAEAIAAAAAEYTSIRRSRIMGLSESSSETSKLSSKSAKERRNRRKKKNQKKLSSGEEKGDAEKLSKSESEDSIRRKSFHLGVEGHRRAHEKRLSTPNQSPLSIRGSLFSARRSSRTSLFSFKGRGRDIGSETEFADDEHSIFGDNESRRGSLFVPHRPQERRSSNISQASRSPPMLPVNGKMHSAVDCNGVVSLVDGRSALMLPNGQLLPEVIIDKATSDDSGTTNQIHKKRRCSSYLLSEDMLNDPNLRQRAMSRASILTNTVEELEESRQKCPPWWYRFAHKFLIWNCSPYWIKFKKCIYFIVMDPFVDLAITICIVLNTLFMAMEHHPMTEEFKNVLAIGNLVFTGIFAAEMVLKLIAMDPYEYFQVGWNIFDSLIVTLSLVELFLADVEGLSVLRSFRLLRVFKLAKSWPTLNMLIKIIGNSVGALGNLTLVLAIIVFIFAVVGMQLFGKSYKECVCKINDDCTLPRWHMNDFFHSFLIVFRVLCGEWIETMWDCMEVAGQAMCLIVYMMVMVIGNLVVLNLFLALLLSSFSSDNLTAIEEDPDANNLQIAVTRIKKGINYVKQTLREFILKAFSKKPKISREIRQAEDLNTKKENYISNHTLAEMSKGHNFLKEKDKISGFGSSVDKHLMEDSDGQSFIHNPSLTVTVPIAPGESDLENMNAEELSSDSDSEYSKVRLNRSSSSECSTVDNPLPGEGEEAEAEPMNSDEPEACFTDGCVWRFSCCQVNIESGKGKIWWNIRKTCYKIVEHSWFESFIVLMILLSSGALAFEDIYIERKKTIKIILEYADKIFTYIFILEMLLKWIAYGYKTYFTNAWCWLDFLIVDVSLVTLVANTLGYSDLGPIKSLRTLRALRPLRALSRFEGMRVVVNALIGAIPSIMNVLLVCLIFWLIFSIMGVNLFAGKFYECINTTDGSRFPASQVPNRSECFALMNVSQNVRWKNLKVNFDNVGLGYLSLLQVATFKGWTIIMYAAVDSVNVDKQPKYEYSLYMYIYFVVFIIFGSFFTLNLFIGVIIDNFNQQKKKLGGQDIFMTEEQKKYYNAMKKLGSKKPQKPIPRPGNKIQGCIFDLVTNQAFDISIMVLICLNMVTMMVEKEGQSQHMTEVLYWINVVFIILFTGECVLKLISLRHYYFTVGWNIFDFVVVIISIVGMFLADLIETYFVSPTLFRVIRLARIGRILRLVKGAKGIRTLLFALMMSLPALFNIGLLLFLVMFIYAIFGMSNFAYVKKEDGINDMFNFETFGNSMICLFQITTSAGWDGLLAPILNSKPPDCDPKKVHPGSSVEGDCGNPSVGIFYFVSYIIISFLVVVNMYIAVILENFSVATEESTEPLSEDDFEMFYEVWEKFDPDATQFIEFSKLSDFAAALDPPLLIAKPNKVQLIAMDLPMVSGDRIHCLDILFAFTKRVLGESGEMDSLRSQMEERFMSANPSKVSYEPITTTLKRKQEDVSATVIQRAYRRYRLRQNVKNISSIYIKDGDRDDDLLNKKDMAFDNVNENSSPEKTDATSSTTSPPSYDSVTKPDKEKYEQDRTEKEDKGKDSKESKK
Sequence (Q07699 whole entry partner, looked up): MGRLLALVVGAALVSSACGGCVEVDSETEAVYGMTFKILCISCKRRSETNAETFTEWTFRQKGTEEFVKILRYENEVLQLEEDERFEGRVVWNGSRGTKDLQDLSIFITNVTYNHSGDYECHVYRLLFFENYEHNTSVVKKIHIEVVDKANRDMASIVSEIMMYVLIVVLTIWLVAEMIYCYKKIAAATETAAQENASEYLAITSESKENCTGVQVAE
Measurement kind: IC50 (µM)

Illustrative cases are given below, each with its answer.
Molecule	Measurement kind	Measured value
CN(C)S(=O)(=O)NC(=O)c1cc(Cl)c(Oc2ccc(Cl)c(C(F)(F)F)c2)cc1F [Preparation 1]	IC50	0.253
O=C(NS(=O)(=O)N1CCC1)c1cc(C2CC2)c(COc2ccc(Cl)c(Cl)c2)cc1F [Preparation 98]	IC50	0.009
CC(C)Oc1ncc(Oc2cc(F)c(C(=O)NS(=O)(=O)N3CCC3)cc2C2CC2)cc1Cl [Preparation 87]	IC50	0.006
CN(C)S(=O)(=O)NC(=O)c1cc(Cl)c(Oc2ccc(-c3nccs3)cc2)cc1F [Preparation 44]	IC50	0.869
CNS(=O)(=O)NC(=O)c1cc(Cl)c(Oc2cnc(OCC(F)(F)C(F)F)c(Cl)c2)cc1F [Preparation 33]	IC50	0.0228
Cc1nc2ccc(Oc3cc(F)c(C(=O)NS(=O)(=O)N(C)C)cc3Cl)cc2s1 [Preparation 64]	IC50	1.9

I. CN(C)S(=O)(=O)NC(=O)c1cc(Cl)c(Oc2ccc3cnn(C)c3c2)cc1F [Preparation 62]
II. CC(C)COc1ncc(Oc2cc(F)c(C(=O)NS(=O)(=O)c3c[nH]cn3)cc2Cl)cc1Cl [Preparation 26]
Task item: // select label with min value of measured IC50 from [ I , II ] Let me know the label of the one you choose.
Reply: II
(II: 0.0773 µM, I: 14 µM)
